Consider the following compounds; for each one, report its Drug susceptibility testing result, ATCC 13073.
Tested on: A. fumigatus ATCC 13073
Test Details: Antifungal susceptibility testing (MEC, CLSI M38-A2)
Assay type: cell-based, Aspergillus fumigatus
Protocol Conditions: 24 h, Fig 1B
Starred links: 1 amine or outer side, 2 acyl side, 3 side chain; linkers in the order of their positions; H or OH if unused. Positions of bridges follow the written chain, without caps; N, C: chain ends. Non-standard residues stand in square brackets, D forms with d. Residues, ends and D or L forms follow the SMILES beside them. *: point of attachment. hTyr(3S-OH,4S-OH,3'-OSO3H) = N[C@H](C(=O)O)[C@H](O)[C@@H](O)c1ccc(O)c(OS(=O)(=O)O)c1; Orn(4R-OH,5R-OH) = O=C([C@H](C[C@@H](O)[C@@H](O)N[*:3])N[*:1])[*:2]; Pro(3S-OH,4S-Me) = C[C@H]1CN[C@H](C(=O)O)[C@H]1O; X1 = CCCCCOc1ccc(-c2cc(-c3ccc(C(=O)*)cc3)no2)cc1; Gln(3R-OH) = NC(=O)C[C@@H](O)[C@H](N)C(=O)O; Hyp = O=C(O)[C@@H]1C[C@@H](O)CN1
Numbers only, in µg/mL.

Please review the following examples before continuing.
* CCC(C)n1ncn(-c2ccc(N3CCN(c4ccc(OCC5COC(Cn6cncn6)(c6ccc(Cl)cc6Cl)O5)cc4)CC3)cc2)c1=O (stereo not drawn) [Itraconazole, itraconazole] | 0.5
* CCCCCOc1ccc(-c2cc(-c3ccc(C(=O)N[C@H]4C[C@@H](O)[C@@H](O)NC(=O)[C@@H]5[C@@H](O)[C@@H](C)CN5C(=O)[C@H]([C@H](O)CC(N)=O)NC(=O)[C@H]([C@H](O)[C@@H](O)c5ccc(O)c(OS(=O)(=O)O)c5)NC(=O)[C@@H]5C[C@@H](O)CN5C(=O)[C@H]([C@@H](C)O)NC4=O)cc3)no2)cc1 [MFG, micafungin] (X1-[Orn(4R-OH,5R-OH)]T[Hyp][hTyr(3S-OH,4S-OH,3'-OSO3H)][Gln(3R-OH)][Pro(3S-OH,4S-Me)]; lactam 1-C) | 0.03

Please look at the following compound next.
Sure, the documented Drug susceptibility testing result, ATCC 13073 for CC[C@H](C)C[C@H](C)CCCCCCCCC(=O)N[C@H]1C[C@@H](O)[C@@H](NCCN)NC(=O)[C@@H]2[C@@H](O)CCN2C(=O)[C@H]([C@H](O)CCN)NC(=O)[C@H]([C@H](O)[C@@H](O)c2ccc(O)cc2)NC(=O)[C@@H]2C[C@@H](O)CN2C(=O)[C@H]([C@@H](C)O)NC1=O [CAS, caspofungin] is 0.12

* * *

System: A. fumigatus ATCC 13073
Test Details: Antifungal susceptibility testing (MEC, CLSI M38-A2)
Format: cell-based, Aspergillus fumigatus
Protocol Conditions: 24 h, Fig 1B
Starred links: 1 amine or outer side, 2 acyl side, 3 side chain; linkers in the order of their positions; H or OH if unused. Positions of bridges follow the written chain, without caps; N, C: chain ends. Non-standard residues stand in square brackets, D forms with d. Residues, ends and D or L forms follow the SMILES beside them. *: point of attachment. pTerphenylCO(4''-OnC5H11) = CCCCCOc1ccc(-c2ccc(-c3ccc(C(=O)*)cc3)cc2)cc1; Orn(4R-OH,5R-OH) = O=C([C@H](C[C@@H](O)[C@@H](O)N[*:3])N[*:1])[*:2]; hTyr(3S-OH,4S-OH) = N[C@H](C(=O)O)[C@H](O)[C@@H](O)c1ccc(O)cc1; Pro(3S-OH,4S-Me) = C[C@H]1CN[C@H](C(=O)O)[C@H]1O; Hyp = O=C(O)[C@@H]1C[C@@H](O)CN1
Experimental Endpoint: Drug susceptibility testing result, ATCC 13073 (µg/mL)
Numbers only, in µg/mL.

* C[C@@H]1[C@H](O)[C@@H](C)/C=C/C=C/C=C/C=C/C=C/C=C/C=C/[C@H](O[C@@H]2O[C@H](C)[C@@H](O)[C@H](N)[C@@H]2O)C[C@@H]2O[C@](O)(C[C@@H](O)C[C@@H](O)[C@H](O)CC[C@@H](O)C[C@@H](O)CC(=O)O[C@H]1C)C[C@H](O)[C@H]2C(=O)O | 0.5

Batch of 2 compounds: report Drug susceptibility testing result, ATCC 13073 for each.
1. C[C@@H](c1ncncc1F)[C@](O)(Cn1cncn1)c1ccc(F)cc1F
2. CCCCCOc1ccc(-c2ccc(-c3ccc(C(=O)N[C@H]4C[C@@H](O)[C@@H](O)NC(=O)[C@@H]5[C@@H](O)[C@@H](C)CN5C(=O)[C@H]([C@@H](C)O)NC(=O)[C@H]([C@H](O)[C@@H](O)c5ccc(O)cc5)NC(=O)[C@@H]5C[C@@H](O)CN5C(=O)[C@H]([C@@H](C)O)NC4=O)cc3)cc2)cc1 [ANF, anidulafungin] ({pTerphenylCO(4''-OnC5H11)}-[Orn(4R-OH,5R-OH)]T[Hyp][hTyr(3S-OH,4S-OH)]T[Pro(3S-OH,4S-Me)]; lactam 1-C)

[0.12, 0.03]
